Ref: patent US7011816B2

Experiment: in vivo
Set-up: species or system nude mice
Conditions: nude, mouse, total radioactivity, Tumor-to-tissue ratio Liver
*1 amine or outer side, *2 acyl side, *3 side chain or, on linkers, in order; H or OH if unused. Where a SMILES comes first, the peptide text is derived from it. Side-chain parts run from the residue outwards. [ ]: non-standard residue; d: D form. The star is where a group is joined. DOTA = O=C(O)CN1CCN(CC(=O)O)CCN(CC(=O)*)CCN(CC(=O)O)CC1; NH(2-(imidazol-4-yl)ethyl) = c1ncc(CCN*)[nH]1; Suc = O=C(CCC(=O)[*:2])[*:1]
READOUT_KIND: tissue to tissue ratio at 6 h

// tissue to tissue ratio at 6 h lookup, compound = NC(=O)[C@H](CCCCNC(=O)CNC(=O)CCC(=O)NCCc1cnc[nH]1)NC(=O)[C@@H](Cc1ccc(O)cc1)NC(=O)[C@H](CCCCNC(=O)CNC(=O)CCC(=O)NCCc1cnc[nH]1)NC(=O)[C@H](Cc1ccccc1)NC(=O)CN1CCN(CC(=O)O)CCN(CC(=O)O)CCN(CC(=O)O)CC1 [Ga-67-IMP 241, metal not drawn] ({DOTA}-FK([Gly-Suc-NH(2-(imidazol-4-yl)ethyl)])[dY]K([Gly-Suc-NH(2-(imidazol-4-yl)ethyl)])-NH2) , result: 16
